Target: T1, hIL-1β V151A (Homo sapiens, UniProt P01584, point mutant)
T1 construct: human interleukin-1β (hIL-1β); source: E. coli BL21 (DE3), purified (Ni-NTA, Superdex 75 SEC)
Experiment: ELISA; antigen (100 ng) coated on the plate; scFv-mFc added in 3% skim milk in DPBST, 2 h at 37 °C; EC50
Settings: both partners purified

| BINDER | binding result |
| --- | --- |
| E64Kcr-A5-mFc (Fc fusion, mouse, as the scFv of m25; source: HEK 293F, transfected, purified (Protein A, Superdex 200 SEC)) VH: EVQLVESGGGLVQPGGSRKLSCAASGFTFSSFGMHWVRQAPEKGLEWVAYISSGSYTIYYADTVKGRFTISRDNPKNTLFLQMTSLRSEDTAMYYCTRDDYDVRAYAMDYWGQGTSVTVSS VL: DIVMTQPSSSFSVSLGDRVTITCKASEDIYNRLAWYQQKPGNAPRLLISGATTLETGVPSRFSGSGSGKDYTLTITSLQTEDVATYYCQQYWSTPLTFGAGTKLELK | binds |
| E64Kcr-A4-mFc (Fc fusion, mouse, as the scFv of m29; source: HEK 293F, transfected, purified (Protein A, Superdex 200 SEC)) VH: EVKLEESGGGLVQPGGSMKLSCVASGFTFSNYWMNWVRQSPEKGLEWVAEIRLKSNNYATPYAESVKGRFTISRDDSKSSVYLQMNNLRAEDTGIYYCTRGGIFLAYWGQGTLVTVSA VL: DIQLTQPTSSLSASLGDRVTISCRASQDISNYLNWYQQKPDGTVKLLIYYTSRLHSGVPSRFSGSGSGTDYSLTISNLEQEDIATYFCQQGNTLPYTFGGGTKLELK | binds |
| E64Kcr-G9-mFc (Fc fusion, mouse, as the scFv of m27; source: HEK 293F, transfected, purified (Protein A, Superdex 200 SEC)) VH: EVQLVESGGGLVQPGGSRKLSCAASGFTFSSFGMHWVRQAPEKGLEWVAYISSGSSTIYYADTVKGRFTISRDNPKNTLFLQMTSLRSEDTAMYYCARDDYDVRAYAMDYWGQGTSVTVSS VL: DIQMIQSPASLSASVGETVTITCRASQNIYSYLAWYQQKQGKSPQLLVYNAKTLAEGVPSRFSGSGSGTQFSLKINSLQPEDFGSYYCQHHYGTPLTFGAGTKLELK | binds |
| E64Kcr-B9-mFc (Fc fusion, mouse, as the scFv of m30; source: HEK 293F, transfected, purified (Protein A, Superdex 200 SEC)) VH: EVQLQQSGAELVKPGASVKLSCTASGFNIKDTYMHWVKQRPEQGLEWIGRIDPANGNTKYDPKFQGKATITADTSSNTAYLQLSSLTSEDTAVYYCAIHYYGSLPVWGAGTTVTVSS VL: GIVMTQSHKFMSTSVGDRVSITCKASQDVGTAVAWYQQKPGQSPKLLIYWASTRHTGVPDRFTGSGSGTDFTLTISNVQSEDLADYFCQQYSSYPLTFGAGTMLELK | binds |

Source of measurements: paper PMC10311653
